Test: qHTS RealTime-Glo MT Cell Viability Assay in HEK293 cells - 16 hour (AID 1224872); further: nearly all actives have a fitted effect of over 50% in size
Details: RealTime-Glo luminescence; series mostly up to 76.8 µM
Excerpt: National Center for Advancing Translational Sciences [NCATS] NIH Chemical Genomics Center [NCGC] U.S. Environmental Protection Agency [EPA] National Institutes of Environmental Health Sciences [NIEHS] National Toxicology Program [NTP] U.S. Food and Drug Administration [FDA] Measure of cell viability is critical in the cell-base assay. Analysis of cell viability is necessary for the characterization of cell responses to cytotoxic drugs and environmental stress. […]
Records with an inconclusive call do not appear. Calls of active or inactive are those of the source. The call rests on the fitted dose curve; in most records, active means well fitted cell-killing curve with a large enough effect in the repeat runs; inconclusive means weak or mixed curves, or effect the other way; inactive means flat fitted curve, though single readings scatter.
Labels: yes = active, no = inactive

INSERT INTO measurements (molecule, label_class) VALUES
  ('Cc1cccc(N(C)C(=S)Oc2ccc3c(c2)CCC3)c1', 'no'),
  ('Cc1ccc(OC(=O)c2ccccc2O)cc1', 'no'),
  ('CC/C=C1/OC(=O)c2ccccc21', 'no'),
  ('CC(CC1c2ccccc2CCc2ccccc21)CN(C)C (stereo not drawn)', 'no'),
  ('O=C1c2ccccc2C(=O)N1CCc1noc(-c2ccc(CN3CCCCCC3)s2)n1', 'yes'),
  ('Cc1ccc2c(Br)cc(Br)c(O)c2n1', 'no'),
  ('CCCCCCNC(=O)n1cc(F)c(=O)[nH]c1=O', 'no'),
  ('CC(=O)[C@H]1[C@H](C#N)C[C@H]2[C@@H]3CC=C4C[C@@H](O)CC[C@]4(C)[C@H]3CC[C@@]21C', 'no'),
  ('CC(=O)Nc1cc(S(=O)(=O)O)cc2cc(S(=O)(=O)O)c(N=Nc3ccccc3)c(O)c12', 'no'),
  ('CC1CC(OC(=O)C(O)c2ccccc2)CC(C)(C)N1C (stereo not drawn)', 'no'),
  ('CCCCN(CCN(CCCC)C(=O)N1CCOCC1)C(=O)N1CCOCC1', 'no'),
  ('CCOC(=O)[C@H](CCc1ccccc1)N[C@@H](C)C(=O)N(CC(=O)O)C1Cc2ccccc2C1', 'no'),
  ('CO/N=C(/C(=O)N[C@@H]1C(=O)N2C(C(=O)O)=C(COC(N)=O)CS[C@H]12)c1ccco1', 'no'),
  ('C(=C\c1ccccc1)/c1ccccc1', 'no'),
  ('CC1=C(Br)C(=O)C(Br)=C/C1=C(/c1ccccc1S(=O)(=O)O)c1cc(Br)c(O)c(Br)c1C', 'no'),
  ('COC(=O)c1nc(Cl)c(Cl)nc1N', 'yes'),
  ('CCCCC(CC)COP(=O)(O)O (stereo not drawn)', 'no'),
  ('CC(=O)NC1(c2cccc(F)c2)CCN(CC[C@@]2(c3ccc(Cl)c(Cl)c3)CN(c3ccccc3)C(=O)CO2)CC1', 'yes'),
  ('CS(=O)(=O)c1ccc(-c2cn3ccccc3n2)cc1', 'no'),
  ('O=C1c2ccccc2C(=O)C1c1nc2ccccc2c(Br)c1O', 'no'),
  ('CC(=O)OCC(=O)NCCCOc1cccc(CN2CCCCC2)c1', 'no'),
  ('c1cc(N(CC2CO2)CC2CO2)ccc1Cc1ccc(N(CC2CO2)CC2CO2)cc1 (stereo not drawn)', 'yes'),
  ('FC(F)(F)c1ccccc1Cl', 'no'),
  ('Cc1ccccc1S', 'no'),
  ('COC(=O)CS', 'no'),
  ('N#CCCN(CCO)CCO', 'no'),
  ('CCCCCCCCN', 'no'),
  ('C[C@]1(Cn2ccnn2)[C@H](C(=O)O)N2C(=O)C[C@H]2S1(=O)=O', 'no'),
  ('CC(CN(C)C)C(C)(O)Cc1ccc(Cl)cc1 (stereo not drawn)', 'no'),
  ('CN1CCCC(n2nc(Cc3ccc(Cl)cc3)c3ccccc3c2=O)CC1 (stereo not drawn)', 'yes'),
  ('Brc1cc(Br)c(Oc2cc(Br)c(Br)cc2Br)cc1Br', 'no'),
  ('COc1cc(C(=O)NCCCCCC(=O)O)cc(OC)c1OC', 'no'),
  ('COc1ccccc1NC(=O)c1cc2ccccc2cc1O', 'yes'),
  ('O=C=Nc1cccc(C(F)(F)F)c1', 'no'),
  ('CCOC(C)=O', 'no'),
  ('CCCCCCCCCCCCCCN(CCO)CCO', 'yes'),
  ('Cc1c(C)c2c(c(C)c1OC(=O)CCC(=O)OCCO)CC[C@@](C)(CCC[C@H](C)CCC[C@H](C)CCCC(C)C)O2', 'no'),
  ('CC(CO)CO', 'no'),
  ('C[C@]12CC[C@@H]3c4ccc(O)cc4CC[C@H]3[C@@H]1CC[C@@H]2OC(=O)CCC1CCCC1', 'yes'),
  ('COc1ncnc(NS(=O)(=O)c2ccc(N)cc2)c1OC', 'no'),
  ('O=C(O)CCCCCCCCCCCBr', 'no'),
  ('O=C(O)CCc1nc(-c2ccccc2)c(-c2ccccc2)o1', 'no'),
  ('N#CCc1ccc(Cl)cc1Cl', 'no'),
  ('CCOc1ccccc1O[C@H](c1ccccc1)[C@H]1CNCCO1', 'no'),
  ('CC1(C)[C@@H](OC(=O)CCC(=O)O)CC[C@]2(C)[C@H]3C(=O)C=C4[C@@H]5C[C@@](C)(C(=O)O)CC[C@]5(C)CC[C@@]4(C)[C@]3(C)CC[C@@H]12', 'no'),
  ('O=C(O)c1ccc(OCCCOc2ccc(C(=O)O)cc2)cc1', 'no'),
  ('C=C1c2cccc(O)c2C(O)=C2C(=O)[C@]3(O)C(O)=C(C(N)=O)C(=O)[C@@H](N(C)C)[C@@H]3[C@@H](O)[C@H]12', 'no'),
  ('CC=C(Cl)Cl', 'no');

---

experiment: qHTS assay to identify small molecule agonists of the vitamin D receptor (VDR) signaling pathway - cell viability counter screen (AID 743224); conditions: VDR-bla HEK293T viability, CellTiter-Glo luminescence, 16 h; series mostly up to 62.6 µM; further: nearly all actives have a fitted effect of over 50% in size
Results filed as inconclusive are left out. Active and inactive are the calls of the source. The call rests on the fitted dose curve; in most records, active means well fitted cell-killing curve with a large enough effect in the repeat runs; inconclusive means weak or mixed curves, or effect the other way; inactive means no such curve, though single readings can be large or run the other way.
Outcomes: 1 (yes) = active, 0 (no) = inactive

INSERT INTO measurements (molecule, label_class) VALUES
  ('CC(C)c1nc(CN(C)C(=O)N[C@H](C(=O)N[C@@H](Cc2ccccc2)C[C@H](O)[C@H](Cc2ccccc2)NC(=O)OCc2cncs2)C(C)C)cs1', '0 (no)'),
  ('CC[N+](CC)(CCNC(=O)C(=O)NCC[N+](CC)(CC)Cc1ccccc1Cl)Cc1ccccc1Cl', '0 (no)'),
  ('CC(C)C=O', '0 (no)'),
  ('Oc1cccc(O)c1O', '0 (no)'),
  ('OC(CCN1CCCC1)(c1ccccc1)C1CCCCC1 (configuration not stated)', '0 (no)'),
  ('O=C(CCc1ccc(O)cc1)c1c(O)cc(O)cc1O', '0 (no)'),
  ('CN(C)CCC=C1c2ccccc2C=Cc2ccccc21', '0 (no)'),
  ('CC(C)(c1ccccc1)c1ccccc1', '0 (no)'),
  ('CCOC(C)=O', '0 (no)'),
  ('CO[C@]1(NC(=O)CSC(F)F)C(=O)N2C(C(=O)O)=C(CSc3nnnn3CCO)CO[C@H]21', '0 (no)'),
  ('c1csc(SSc2cccs2)c1', '0 (no)'),
  ('C[C@@H](O[C@H]1OCCN(Cc2n[nH]c(=O)[nH]2)[C@H]1c1ccc(F)cc1)c1cc(C(F)(F)F)cc(C(F)(F)F)c1', '1 (yes)'),
  ('FC(F)(F)c1ccccc1Cl', '0 (no)'),
  ('COC(=O)CS', '0 (no)'),
  ('C=CCc1ccccc1OCC(O)CNC(C)C (configuration not stated)', '0 (no)'),
  ('C/C=C/C=C/C=O', '0 (no)'),
  ('CCCCN(CCN(CCCC)C(=O)N1CCOCC1)C(=O)N1CCOCC1', '1 (yes)'),
  ('O=c1cc(-c2ccccc2)oc2cc(O)cc(O)c12', '0 (no)'),
  ('CNC(=O)c1cnn(-c2nc(N)c3ncn([C@@H]4O[C@H](CO)[C@@H](O)[C@H]4O)c3n2)c1', '0 (no)'),
  ('Cc1cc(C)cc(N)c1', '0 (no)'),
  ('CCC(C)COC(=O)CC(C)C (configuration not stated)', '0 (no)'),
  ('Cc1ccc(Cl)c(Nc2ccccc2C(=O)O)c1Cl', '0 (no)'),
  ('Cc1ccc(C(C)(C)O)cc1', '0 (no)'),
  ('c1ccc2c(c1)CCc1ccccc1N2', '0 (no)'),
  ('O=C1c2ccccc2C(=O)C1c1ccc(Br)cc1', '0 (no)'),
  ('Oc1cccc(Nc2ccccc2)c1', '0 (no)'),
  ('Cc1ccco1', '0 (no)');
